molecular target: rabbit serum albumin (RSA) (Oryctolagus cuniculus, UniProt P49065); assay: Isothermal titration calorimetry with rabbit serum albumin
Sequence (P49065 25-608): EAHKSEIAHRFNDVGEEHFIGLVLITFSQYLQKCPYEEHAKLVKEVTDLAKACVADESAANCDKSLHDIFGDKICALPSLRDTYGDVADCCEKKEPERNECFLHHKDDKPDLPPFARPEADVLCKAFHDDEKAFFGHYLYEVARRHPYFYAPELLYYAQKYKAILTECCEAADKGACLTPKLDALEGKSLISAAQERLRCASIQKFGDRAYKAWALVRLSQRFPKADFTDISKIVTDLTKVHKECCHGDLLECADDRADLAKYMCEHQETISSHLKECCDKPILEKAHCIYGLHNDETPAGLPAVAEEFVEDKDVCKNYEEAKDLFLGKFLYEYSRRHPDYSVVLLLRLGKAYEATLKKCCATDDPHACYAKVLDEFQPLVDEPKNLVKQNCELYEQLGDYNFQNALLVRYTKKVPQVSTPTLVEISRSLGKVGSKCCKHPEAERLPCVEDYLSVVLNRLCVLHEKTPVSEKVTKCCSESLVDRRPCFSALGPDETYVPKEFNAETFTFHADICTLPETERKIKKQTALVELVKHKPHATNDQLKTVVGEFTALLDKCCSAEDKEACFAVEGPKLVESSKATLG
pKd: −log10 of the molar value.
Outcome measure: pKd

INSERT INTO assay_data (compound, outcome_measure, observed_result) VALUES
  ('CCCCCCCCCCCC(=O)OCC(O)CO (stereo not shown) [GML, Glycerol monolaurate]', 'pKd', 5.27);

----------
Molecular target: human serum albumin (HSA) (Homo sapiens)
Sequence (P02768 25-609): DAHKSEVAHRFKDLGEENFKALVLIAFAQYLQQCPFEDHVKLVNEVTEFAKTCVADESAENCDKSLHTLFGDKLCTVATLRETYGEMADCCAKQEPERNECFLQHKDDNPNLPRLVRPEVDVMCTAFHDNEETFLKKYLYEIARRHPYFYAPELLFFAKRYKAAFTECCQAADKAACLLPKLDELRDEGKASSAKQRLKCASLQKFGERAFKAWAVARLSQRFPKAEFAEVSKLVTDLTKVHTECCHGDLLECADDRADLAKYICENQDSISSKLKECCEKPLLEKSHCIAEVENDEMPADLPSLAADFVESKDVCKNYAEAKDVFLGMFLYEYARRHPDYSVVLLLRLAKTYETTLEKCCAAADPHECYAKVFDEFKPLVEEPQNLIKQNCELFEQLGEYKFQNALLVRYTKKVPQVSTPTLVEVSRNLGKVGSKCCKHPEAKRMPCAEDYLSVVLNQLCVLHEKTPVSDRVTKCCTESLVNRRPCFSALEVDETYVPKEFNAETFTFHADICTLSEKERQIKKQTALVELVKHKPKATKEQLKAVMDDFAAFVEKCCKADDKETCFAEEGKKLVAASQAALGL
Assay: Isothermal titration calorimetry with human serum albumin
Details: ITC, single-site model, 5 μM albumin, 150 μM ligand
Procedure: All samples were degassed, and ITC was performed at room temperature as previously described using MicroCal VP-ITC calorimeter. […] The data were analyzed using a single-site binding model provided in the ITC analysis software package. […] The values for ΔH, Kd and stoichiometry averaged ± standard deviation. […] The values for stoichiometry and binding affinity were derived from the ITC experiments. […]
Outcome measure: Kd (µM)

INSERT INTO measurements (smiles_structure, observed_result) VALUES
  ('CCCCCCCCCCCC(=O)O', 4.9);

----------
biological target: mouse serum albumin (MSA) (Mus musculus); experiment: Isothermal titration calorimetry with mouse serum albumin
Sequence (P07724 25-608): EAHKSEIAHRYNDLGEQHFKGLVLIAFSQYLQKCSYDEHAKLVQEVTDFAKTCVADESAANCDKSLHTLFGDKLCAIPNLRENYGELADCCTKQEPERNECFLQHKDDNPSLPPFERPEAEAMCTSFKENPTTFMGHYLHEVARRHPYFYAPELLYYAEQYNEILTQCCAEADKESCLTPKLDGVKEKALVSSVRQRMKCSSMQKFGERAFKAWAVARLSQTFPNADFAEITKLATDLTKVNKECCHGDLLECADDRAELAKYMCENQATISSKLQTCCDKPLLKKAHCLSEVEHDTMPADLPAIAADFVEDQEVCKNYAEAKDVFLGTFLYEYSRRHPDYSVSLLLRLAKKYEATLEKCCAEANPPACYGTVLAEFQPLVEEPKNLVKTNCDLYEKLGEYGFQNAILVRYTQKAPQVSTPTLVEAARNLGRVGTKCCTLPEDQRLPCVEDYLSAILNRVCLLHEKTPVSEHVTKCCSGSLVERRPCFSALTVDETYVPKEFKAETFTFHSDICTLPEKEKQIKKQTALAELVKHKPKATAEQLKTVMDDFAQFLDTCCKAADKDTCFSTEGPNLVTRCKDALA
Outcome measure: Kd

INSERT INTO assay_data (molecule, observed_result) VALUES
  ('CCCCCCCCCCCC(=O)OCC(O)CO (stereo not shown) [GML, Glycerol monolaurate]', '6.3 µM');

----------
target: pig serum albumin (PSA) (Sus scrofa); assay: Isothermal titration calorimetry with pig serum albumin
Sequence (P08835 25-607): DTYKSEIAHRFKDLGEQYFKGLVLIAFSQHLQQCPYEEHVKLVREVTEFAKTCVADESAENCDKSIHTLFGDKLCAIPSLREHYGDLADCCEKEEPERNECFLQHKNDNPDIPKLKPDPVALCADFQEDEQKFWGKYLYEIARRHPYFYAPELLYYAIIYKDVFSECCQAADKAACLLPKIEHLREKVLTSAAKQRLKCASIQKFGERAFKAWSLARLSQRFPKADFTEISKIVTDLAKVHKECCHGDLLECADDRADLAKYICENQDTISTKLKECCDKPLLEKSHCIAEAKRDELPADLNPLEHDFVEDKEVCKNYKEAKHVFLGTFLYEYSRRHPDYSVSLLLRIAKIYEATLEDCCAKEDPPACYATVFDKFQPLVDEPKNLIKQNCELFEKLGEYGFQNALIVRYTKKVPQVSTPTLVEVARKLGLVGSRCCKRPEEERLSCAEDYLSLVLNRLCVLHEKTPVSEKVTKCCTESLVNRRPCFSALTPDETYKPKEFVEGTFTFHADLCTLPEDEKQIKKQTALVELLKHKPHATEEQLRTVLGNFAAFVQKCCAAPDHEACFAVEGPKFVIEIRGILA
pKd: −log10 of the molar value.
Outcome measure: pKd

INSERT INTO assay_data (molecule, outcome_measure, observed_result) VALUES
  ('CCCCCCCCCCCC(=O)OCC(O)CO (stereo not shown) [GML, Glycerol monolaurate]', 'pKd', 5.35);

----------
target: human serum albumin (HSA) (Homo sapiens); experiment: Isothermal titration calorimetry with human serum albumin
Outcome measure: Kd

INSERT INTO measurements (smiles_structure, target_under_test, outcome_measure, observed_result) VALUES
  ('OCC(O)CO', 'human serum albumin (HSA) (Homo sapiens)', 'Kd', '> 50 µM');

----------
target: bovine serum albumin (BSA) (Bos taurus); experiment: Isothermal titration calorimetry with bovine serum albumin
Sequence (P02769 25-607): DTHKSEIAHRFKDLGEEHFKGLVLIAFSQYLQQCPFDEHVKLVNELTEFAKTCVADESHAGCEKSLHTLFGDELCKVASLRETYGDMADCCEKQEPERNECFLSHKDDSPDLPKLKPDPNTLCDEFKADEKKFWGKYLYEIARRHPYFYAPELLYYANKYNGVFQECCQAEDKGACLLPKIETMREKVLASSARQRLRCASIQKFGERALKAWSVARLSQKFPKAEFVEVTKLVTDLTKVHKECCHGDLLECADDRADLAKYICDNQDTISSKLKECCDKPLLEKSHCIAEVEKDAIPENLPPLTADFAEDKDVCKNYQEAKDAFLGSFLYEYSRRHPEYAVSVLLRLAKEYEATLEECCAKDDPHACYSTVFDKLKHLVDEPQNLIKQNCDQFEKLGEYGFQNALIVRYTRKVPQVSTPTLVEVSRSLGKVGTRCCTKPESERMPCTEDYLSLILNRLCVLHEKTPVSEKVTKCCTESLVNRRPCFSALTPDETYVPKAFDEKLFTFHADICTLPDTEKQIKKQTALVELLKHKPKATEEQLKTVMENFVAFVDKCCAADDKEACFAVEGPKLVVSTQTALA
Outcome measure: Kd (µM)

INSERT INTO results (molecule, outcome_measure, observed_result) VALUES
  ('CCCCCCCCCCCC(=O)OCC(O)CO (stereo not shown) [GML, Glycerol monolaurate]', 'Kd', 2.2);
